Experiment: A CellTox Green Cytotoxicity Assay to monitor cytotoxicity in HEK293 cells - 8 hour (AID 1224884); further: nearly all actives have a fitted effect of over 35% in size
Conditions: CellTox Green fluorescence; series mostly up to 76.8 µM
Records with an inconclusive call do not appear. Calls of active or inactive are those of the source. The call rests on the fitted dose curve; in most records, active means well fitted activation curve with a large enough effect in the repeat runs; inconclusive means weak or mixed curves; inactive means flat fitted curve, though single readings scatter.
Outcomes: Y (active), N (inactive)

| Compound | Category |
| --- | --- |
| CCOC(=O)O[C@H](C)OC(=O)c1ccc2c(c1)cc(C(=O)NC1CCN(C(C)C)CC1)n2Cc1cc(-c2ccc(Cl)s2)on1 | Y |
| CN(C)[C@@H]1C(=O)C(C(N)=O)=C(O)[C@@]2(O)C(=O)C3=C(O)c4c(O)ccc(Cl)c4[C@@H](O)[C@H]3C[C@@H]12 | N |
| COc1cccc2c1C(=O)c1c(O)c3c(c(O)c1C2=O)C[C@@](O)(C(=O)CO)C[C@@H]3O[C@H]1C[C@H](N)[C@H](O[C@@H]2CCCCO2)[C@H](C)O1 | N |
| O=c1c(-c2ccccc2)c1-c1ccccc1 | N |
| Cc1onc(-c2c(Cl)cccc2Cl)c1C(=O)N[C@@H]1C(=O)N2[C@@H]1SC(C)(C)[C@@H]2C(=O)O | N |
| CC1=C(C(=O)OC(C)C)C(c2cccc([N+](=O)[O-])c2)C(C(=O)OC2CN(C(c3ccccc3)c3ccccc3)C2)=C(N)N1 (stereo unspecified) | N |

###

Test: qHTS assay for small molecule activators of the heat shock response signaling pathway - cell viability counter screen (AID 743209); further: nearly all actives have a fitted effect of over 50% in size
Settings: HSE-bla HeLa viability, CellTiter-Glo luminescence, 5 h; series mostly up to 62.6 µM
Results filed as inconclusive are left out. Calls of active or inactive are those of the source. The call rests on the fitted dose curve; in most records, active means well fitted cell-killing curve with a large enough effect in the repeat runs; inconclusive means weak or mixed curves, or effect the other way; inactive means no such curve, though single readings can be large or run the other way.
Outcomes: class 1 = active, class 0 = inactive

| Molecule | Category |
| --- | --- |
| Cc1oc(-c2ccccc2)nc1CCC(=O)c1ccc(CC2SC(=O)NC2=O)cc1 (centres undefined) | class 0 |
| Oc1ccc(C2(c3ccc(O)cc3)CC3CC2C2CCCC32)cc1 (centres undefined) | class 1 |
| CN1CCN(CCC(=O)N2c3ccccc3Sc3ccc(C(F)(F)F)cc32)CC1 | class 0 |
| Cc1c(C)c2c(c(C)c1O)CCC(C)(COc1ccc(CC3SC(=O)NC3=O)cc1)O2 (centres undefined) | class 0 |
| CC(NN)c1ccccc1 (centres undefined) | class 0 |
| NC(=O)N1C(=O)C(C(=O)c2cc(Cl)cs2)c2cc(F)c(Cl)cc21 (centres undefined) | class 0 |
| Nc1ccc2cc(S(=O)(=O)O)cc(O)c2c1N=Nc1ccccc1C(F)(F)F | class 0 |
| O=C(NOCC1CC1)c1ccc(F)c(F)c1Nc1ccc(I)cc1Cl | class 1 |
| CNC(=O)c1ccccc1 | class 0 |
| CSc1ccc(C(=O)c2[nH]c(=O)[nH]c2C)cc1 | class 0 |
| CCCCCCCCCOC(=O)c1ccc(O)cc1 | class 1 |
| CCc1oc2ccccc2c1C(=O)c1cc(Br)c(O)c(Br)c1 | class 0 |
| CCCCCCCC/C=C\CCCCCCCCOCCO | class 1 |
| CN1CCC(Nc2ncc3ncnc(Nc4ccc(F)c(Cl)c4)c3n2)CC1 | class 0 |

###

Molecular target: Nuclear receptor subfamily 1 group I member 3 (Homo sapiens)
Experiment: qHTS assay to identify small molecule antagonists of the constitutive androstane receptor (CAR) signaling pathway (AID 1224838);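 further: HepG2 cells stably expressing hCAR with CYP2B6 luciferase reporter stimulated by CITCO; nearly all actives have a fitted effect of over 40% in size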
Conditions: HepG2-CYP2B6-hCAR luciferase, CITCO-stimulated, 24 h; series mostly up to 92.4 µM
Records with an inconclusive call do not appear. The source made the active and inactive calls. Calls come from the whole dose curve; as a rule, active = well fitted inhibition curve with a large enough effect in the repeat runs; inconclusive = weak or mixed curves, or effect the other way; inactive = no such curve, though single readings can be large or run the other way.

| Compound | outcome |
| --- | --- |
| Cc1ccc(O)c(C(C)(C)C)c1 | inactive |
| Clc1ccc(C(Cn2ccnc2)OCc2ccc(Sc3ccccc3)cc2)c(Cl)c1 (stereo not drawn) | inactive |
| CCCC1O[C@@H]2C[C@H]3[C@@H]4CCC5=CC(=O)C=C[C@]5(C)[C@H]4[C@@H](O)C[C@]3(C)[C@]2(C(=O)CO)O1 (stereo partly drawn) | inactive |

###

Test: A CellTox Green Cytotoxicity Assay to monitor cytotoxicity in HEK293 cells - 32 hour (AID 1224881); further: nearly all actives have a fitted effect of over 40% in size
Conditions: CellTox Green fluorescence; series mostly up to 76.8 µM
Inconclusive results are not listed. The source made the active and inactive calls. Calls come from the whole dose curve; as a rule, active = well fitted activation curve with a large enough effect in the repeat runs; inconclusive = weak or mixed curves; inactive = flat fitted curve, though single readings scatter.
Outcomes: class 1 = active, class 0 = inactive

| Molecule | Category |
| --- | --- |
| Cc1oc(-c2ccccc2)nc1CCC(=O)c1ccc(CC2SC(=O)NC2=O)cc1 (stereo not given) | class 0 |
| CO[Si](CCCNc1ccccc1)(OC)OC | class 0 |
| NNc1nc(-c2ccc(N)cc2)cs1 | class 0 |
| N#CC1(c2ccc(F)cc2)CCC(=O)CC1 | class 0 |
| CC(C)(C)C(=O)OCOC(=O)[C@@H]1N2C(=O)[C@@H](NC(=O)[C@H](N)c3ccccc3)[C@H]2SC1(C)C | class 0 |
| NC(=O)CC[C@@H]1NC(=O)[C@H](Cc2ccccc2)NC(=O)[C@H](Cc2ccc(O)cc2)NC(=O)CCSSC[C@@H](C(=O)N2CCC[C@H]2C(=O)N[C@@H](CCCN=C(N)N)C(=O)NCC(N)=O)NC(=O)[C@H](CC(N)=O)NC1=O | class 0 |
| C=CC(=O)OCC(CO)(COC(=O)C=C)COC(=O)C=C | class 1 |
| CN(C)CCCOC1(Cc2ccccc2)CCCCCC1 | class 0 |
| CCN1/C(=C/C=C/c2sc3ccccc3[n+]2CC)Sc2ccccc21 | class 1 |
| Cc1cccc(N(C)C(=S)Oc2ccc3c(c2)C2CCC3C2)c1 (stereo not given) | class 0 |
| CNc1ccc(O)cc1 | class 1 |
| C/C=C1/C(=O)C[C@H]2[C@@H]3CCC4=CC(=O)CC[C@]4(C)[C@H]3CC[C@]12C | class 0 |
| CC(C)C(C)(C)C(C)(C)C(C)(C)S | class 0 |
| [Cl][Au]([Cl])[Cl] | class 1 |
| Oc1cc2ccccc2c2ccccc12 | class 1 |

###

Assay: qHTS RealTime-Glo MT Cell Viability Assay in HEK293 cells - 32 hour (AID 1224868); further: nearly all actives have a fitted effect of over 50% in size
Conditions: RealTime-Glo luminescence; series mostly up to 76.8 µM
Inconclusive results are not listed. Active and inactive are the calls of the source. Calls come from the whole dose curve; as a rule, active = well fitted cell-killing curve with a large enough effect in the repeat runs; inconclusive = weak or mixed curves, or effect the other way; inactive = flat fitted curve, though single readings scatter.
Outcomes: active, inactive

| Structure String | Category |
| --- | --- |
| CCOC(=O)c1nc(C(Cl)(Cl)Cl)n(-c2ccc(Cl)cc2Cl)n1 | inactive |
| CNc1ccc(O)cc1 | active |
| COc1cc(/C=C/C(=O)O[C@H]2CC[C@]34C[C@]35CC[C@]3(C)[C@@H]([C@H](C)CCC=C(C)C)CC[C@@]3(C)[C@@H]5CC[C@H]4C2(C)C)ccc1O | inactive |
| Cc1cc2c(cc1C(F)(F)F)N(C(=O)Nc1ccc(Oc3cccnc3C)nc1)CC2 | active |
| CC/C(=C(\c1ccc(O)cc1)c1ccc(OCCN(C)C)cc1)c1ccccc1 | active |
| [O-][n+]1ccccc1SSc1cccc[n+]1[O-] | active |

###

Assay: qHTS assay to identify aromatase inhibitors - cell viability counter screen (AID 743084);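 further: cells stimulated with testosterone during compound exposure; nearly all actives have a fitted effect of over 55% in size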
Details: MCF-7 aro ERE viability, CellTiter-Fluor, 24 h; series mostly up to 70.3 µM
Results filed as inconclusive are left out. Activity calls are given as the source filed them. Calls come from the whole dose curve; as a rule, active = well fitted cell-killing curve with a large enough effect in the repeat runs; inconclusive = weak or mixed curves, or effect the other way; inactive = no such curve, though single readings can be large or run the other way.
Outcomes: active, inactive

| Compound | Category |
| --- | --- |
| CN(C)[C@@H]1C(=O)C(C(N)=O)=C(O)[C@@]2(O)C(=O)C3=C(O)c4c(O)ccc(Cl)c4[C@@H](O)[C@H]3C[C@@H]12 | inactive |
| CCOC(=O)/C=C(C)/C=C/C=C(C)/C=C/c1c(C)cc(OC)c(C)c1C | inactive |
| CCN(CCC#N)c1ccc(N=Nc2c(Cl)cc([N+](=O)[O-])cc2Cl)cc1 | active |
| Oc1cc2ccccc2c2ccccc12 | active |
| O=C(Oc1cccc2cccnc12)c1ccccc1 | active |
| CCC1OCC(COc2ccc(Oc3ccccc3)cc2)O1 (stereo unspecified) | inactive |

###

Molecular target: Aryl hydrocarbon receptor (Homo sapiens) (UniProt P35869)
Sequence (P35869 whole entry, looked up): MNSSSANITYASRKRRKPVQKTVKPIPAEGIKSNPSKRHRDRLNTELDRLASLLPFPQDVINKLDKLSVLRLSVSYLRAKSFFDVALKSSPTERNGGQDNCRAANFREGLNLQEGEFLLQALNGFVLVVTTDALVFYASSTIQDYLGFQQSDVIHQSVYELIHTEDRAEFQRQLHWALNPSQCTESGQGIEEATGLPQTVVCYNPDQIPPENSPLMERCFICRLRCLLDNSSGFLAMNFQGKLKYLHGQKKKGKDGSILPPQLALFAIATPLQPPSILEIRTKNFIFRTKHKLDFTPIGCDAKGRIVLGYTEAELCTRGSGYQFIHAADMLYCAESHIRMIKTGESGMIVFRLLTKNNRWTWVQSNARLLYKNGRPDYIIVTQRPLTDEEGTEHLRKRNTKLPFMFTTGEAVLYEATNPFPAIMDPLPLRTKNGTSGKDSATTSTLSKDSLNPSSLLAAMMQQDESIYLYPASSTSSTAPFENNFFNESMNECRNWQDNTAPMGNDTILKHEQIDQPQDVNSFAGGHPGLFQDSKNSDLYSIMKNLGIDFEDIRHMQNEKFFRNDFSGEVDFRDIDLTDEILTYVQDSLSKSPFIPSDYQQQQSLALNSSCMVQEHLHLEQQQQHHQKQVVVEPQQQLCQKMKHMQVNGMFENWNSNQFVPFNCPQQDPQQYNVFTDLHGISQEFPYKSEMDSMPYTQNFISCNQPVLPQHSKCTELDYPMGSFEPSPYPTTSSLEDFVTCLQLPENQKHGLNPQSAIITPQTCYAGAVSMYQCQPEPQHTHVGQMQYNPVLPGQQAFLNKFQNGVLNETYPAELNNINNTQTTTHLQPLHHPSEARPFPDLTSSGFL
Test: qHTS assay to identify small molecule that activate the aryl hydrocarbon receptor (AhR) signaling pathway (AID 743085); further: nearly all actives have a fitted effect of over 15% in size;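 on activation: HG2L7.5c1 human HepG2 liver cells with stably integrated DRE-driven firefly reporter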
Conditions: HepG2 AhR-luc (HG2L7.5c1), luciferase, 24 h; series mostly up to 70.3 µM
Results filed as inconclusive are left out. The source made the active and inactive calls. Calls come from the whole dose curve; as a rule, active = well fitted activation curve with a large enough effect in the repeat runs; inconclusive = weak or mixed curves; inactive = no such curve, though single readings can be large or run the other way.
Outcomes: True = active, False = inactive

| Structure String | Category |
| --- | --- |
| COc1c(C)c2c(c(O)c1C/C=C(\C)CCC(=O)O)C(=O)OC2 | False |
| CN1CCN(CCC(=O)N2c3ccccc3Sc3ccc(C(F)(F)F)cc32)CC1 | False |
| Cc1cc(O)c2ccccc2c1O | True |
| C/C=C1/C(=O)C[C@H]2[C@@H]3CCC4=CC(=O)CC[C@]4(C)[C@H]3CC[C@]12C | False |
| NNc1nc(-c2ccccc2)cs1 | True |
| O=C1c2c(O)ccc(Nc3ccc(CCO)cc3)c2C(=O)c2c([N+](=O)[O-])ccc(O)c21 | True |
